Tested on: P388 leukemia ip, CD2F1 mice, survival T/C
Assay: NCI In Vivo Anticancer Drug Screen. Data for tumor model P388 Leukemia (intraperitoneal) in CD2F1 (CDF1) mice
Conditions: endpoint: median survival time; dose: 2.5 mg/kg/injection; schedule: Q01DX009 (ip); vehicle: saline; higher = longer survival
Experimental: The antitumor activity of compounds was measured in mice bearing transplantable tumors. Survival or tumor size were measured and the results are expressed as the measurement made in the treated group (T) divided by the measurement made in the vehicle treated control group (C). The tumor model used in this assay is P388 Leukemia (intraperitoneal) in CD2F1 (CDF1) mice
Inconclusive results and toxic doses are left out.
Reported Endpoint: T/C

O=C(CCBr)N1CCN(C(=O)CCBr)CC1
100 % of control
C/C=C1\C(=O)O[C@@]23C=C[C@H]4C(C(=O)OC)=CO[C@@H](O[C@H]12)[C@H]43
100 % of control
C/C=C1/CNC2Cc3c([nH]c4ccccc34)C(c3ccc4c5c([nH]c4c3)C3CC4CC(CC)C3N(CC5)C4)CC1C2C(=O)OC (centres undefined)
106 % of control

Ask | Could you share which T/C value was measured for CN1CCC(C#N)(c2ccccn2)CC1 ?
Reply | 100 % of control

###

test system: P388 leukemia ip, CD2F1 mice, survival T/C; experiment: NCI In Vivo Anticancer Drug Screen. Data for tumor model P388 Leukemia (intraperitoneal) in CD2F1 (CDF1) mice; details: endpoint: median survival time; dose: 12.5 mg/kg/injection; schedule: Q01DX009 (ip); vehicle: Klucel (hydroxypropylcellulose) (HPC); higher = longer survival
Inconclusive results and toxic doses are left out.
Reported Endpoint: T/C

CCn1c(=O)c2ncnnc2n(CC)c1=O
111 % of control
CSc1nc2ccc(N3C(=O)C=CC3=O)cc2s1
101 % of control

Ask | Could you share which T/C value was measured for Cc1c(C)[n+](=O)c2ccc(/C=N/N3CCOC3=O)cc2n1[O-] ?
Reply | 97 % of control

Ask | Could you share which T/C value was measured for O=C(CC(=O)N1CCN=C1Nc1c(Cl)cccc1Cl)c1ccc(Cl)cc1 ?
Reply | 105 % of control

Ask | Could you share which T/C value was measured for CCCCCNC(=S)N/N=C(\C)c1ccccn1 ?
Reply | 107 % of control

Ask | Could you share which T/C value was measured for ClC(=Nc1ccccc1)c1ccccn1 ?
Reply | 101 % of control

Ask | Could you share which T/C value was measured for COc1ccc2c(c1)CCC1(C)CC(=O)C=C21 (stereo not drawn) ?
Reply | 114 % of control

Ask | Could you share which T/C value was measured for Cc1nnc(-n2cccc2)s1 ?
Reply | 105 % of control

###

test system: P388 leukemia ip, CD2F1 mice, survival T/C; experiment: NCI In Vivo Anticancer Drug Screen. Data for tumor model P388 Leukemia (intraperitoneal) in CD2F1 (CDF1) mice; details: endpoint: median survival time; dose: 200.0 mg/kg/injection; schedule: Q01DX009 (ip); vehicle: Klucel (hydroxypropylcellulose) (HPC); higher = longer survival
Inconclusive results and toxic doses are left out.
Reported Endpoint: T/C

Cc1ccc(NC(=O)NCCCN2CCOCC2)cc1NC(=O)NCCCN1CCOCC1
96 % of control
CCCCCCCCCN1CCS(=O)(=O)CC1
103 % of control
O=c1oc(-c2ccccc2O)ns1
102 % of control

Ask | Could you share which T/C value was measured for O=C(Nc1ccccc1-c1ccccc1)C(Cl)Cl ?
Reply | 87 % of control

Ask | Could you share which T/C value was measured for O=c1n(-c2ccccc2)c(=O)n2c(=O)n(-c3ccccc3)c(=O)n12 ?
Reply | 89 % of control

Ask | Could you share which T/C value was measured for CCN(CC)C(Cl)=Nc1ccc(Cl)cc1 ?
Reply | 94 % of control

Ask | Could you share which T/C value was measured for ClC(Cl)=C(Cl)Cl ?
Reply | 100 % of control

###

system: P388 leukemia ip, CD2F1 mice, survival T/C; experiment: NCI In Vivo Anticancer Drug Screen. Data for tumor model P388 Leukemia (intraperitoneal) in CD2F1 (CDF1) mice; conditions: endpoint: median survival time; dose: 6.25 mg/kg/injection; schedule: Q01DX009 (ip); vehicle: saline with Tween-80; higher = longer survival
Toxic doses and inconclusive results are not listed.
Reported Endpoint: T/C

Take a look at these entries with their results.
CN(C)C(=S)/N=c1\ss/c(=N/C(=S)N(C)C)n1-c1ccc([N+](=O)[O-])cc1
102 % of control
Cc1cc(N=Nc2ccncc2C)ccc1N
106 % of control
CSC(=S)NN=C1CCCCC1
98 % of control
Cc1c2oc3c(C)ccc(C(=O)OCCN4CCCCC4)c3nc-2c(C(=O)OCCN2CCCCC2)c(N)c1=O
100 % of control

Ask | Could you share which T/C value was measured for CN(C)c1ccc(C(N)=O)cn1 ?
Reply | 90 % of control

Ask | Could you share which T/C value was measured for SCc1ccccc1.[Cu+2] ?
Reply | 99 % of control

Ask | Could you share which T/C value was measured for CC(CN(C)C)C(=O)c1ccccc1 (configuration not stated) ?
Reply | 113 % of control

###

test system: P388 leukemia ip, CD2F1 mice, survival T/C; test: NCI In Vivo Anticancer Drug Screen. Data for tumor model P388 Leukemia (intraperitoneal) in CD2F1 (CDF1) mice; conditions: endpoint: median survival time; dose: 25.0 mg/kg/injection; schedule: Q01DX005 (ip); vehicle: Klucel (hydroxypropylcellulose) (HPC); higher = longer survival
Inconclusive results and toxic doses are left out.
Reported Endpoint: T/C

Take a look at these entries with their results.
Nc1nnc2cc(Cl)ccc2n1
98 % of control
Cc1cccc(-n2c(C)nc3c(c(C)c(C)n3-c3ccccc3)c2=N)c1
99 % of control
Cc1nc2ccccc2c2c(N)cccc12
105 % of control
N#Cc1ccc[n+](CC(=O)c2ccc3ccccc3c2)c1
100 % of control
O=C(O)c1cccc2c1-c1ccccc1C2=O
99 % of control
O=C1C=C(Cl)C(=O)C(c2ccccc2)=C1Cl
91 % of control

Ask | Could you share which T/C value was measured for CCCCCNc1ncnc2c(C)[nH]nc12 ?
Reply | 98 % of control

Ask | Could you share which T/C value was measured for Cc1cccc(C)c1NC(=S)NC(=O)c1cccc(Cl)c1 ?
Reply | 94 % of control

Ask | Could you share which T/C value was measured for C=C(C1=CC(=O)C(C)=C(OC)C1=O)C(CC=C(C)C)OC(=O)/C(C)=C/C (stereo not drawn) ?
Reply | 102 % of control

Ask | Could you share which T/C value was measured for O=c1[nH]nc(SCc2c(Cl)cccc2Cl)c(=O)[nH]1 ?
Reply | 95 % of control

Ask | Could you share which T/C value was measured for CN(C)c1ncnc2nc(Cl)[nH]c12 ?
Reply | 108 % of control

Ask | Could you share which T/C value was measured for COc1cc([C@@H]2c3cc4c(cc3[C@H](OC(=O)c3ccncc3)[C@H]3COC(=O)[C@H]23)OCO4)cc(OC)c1OC ?
Reply | 118 % of control

Ask | Could you share which T/C value was measured for CCN(CC)CCCC(Nc1c2ccc(Cl)cc2nc2ccc(OC)cc12)c1cccc2ccccc12 (stereo not drawn) ?
Reply | 106 % of control

###

test system: P388 leukemia ip, CD2F1 mice, survival T/C; experiment: NCI In Vivo Anticancer Drug Screen. Data for tumor model P388 Leukemia (intraperitoneal) in CD2F1 (CDF1) mice; conditions: endpoint: median survival time; dose: 25.0 mg/kg/injection; schedule: Q01DX001 (ip); vehicle: Klucel (hydroxypropylcellulose) (HPC); higher = longer survival
Inconclusive results and toxic doses are left out.
Quick list: T/C per entry.

O=C(c1ccccc1)C(c1ccccc1)n1nc2c(c1-c1ccccc1)CCC2 (stereo unspecified)
95 % of control
O=C(c1ccccc1)C1C(c2ccccc2)C2(CCCCC2=O)C(c2ccccc2)CC1(O)c1ccccc1 (stereo unspecified)
86 % of control
COC(=O)/C=C\C=[N+](/[O-])C(C)(C)C
113 % of control
[CH3][Sn]1([CH3])[O]C(=O)C(=O)[O]1
101 % of control
CC1(C)CC(=O)C(CSc2ccccc2)C(=O)C1
100 % of control

Here is the next item to consider.
Ask | Could you share which T/C value was measured for CC(C)OSc1ccccc1 ?
Reply | 113 % of control

###

Quick list: T/C per entry.
tested on: P388 leukemia ip, CD2F1 mice, survival T/C; test: NCI In Vivo Anticancer Drug Screen. Data for tumor model P388 Leukemia (intraperitoneal) in CD2F1 (CDF1) mice; details: endpoint: median survival time; dose: 15.0 mg/kg/injection; schedule: Q01DX005 (ip); vehicle: Klucel (hydroxypropylcellulose) (HPC); higher = longer survival
Inconclusive results and toxic doses are left out.

Take a look at these entries with their results.
CC(=O)c1cc[c]([Sn]([CH3])([Cl])[c]2ccccc2)cc1 (stereo not given)
107 % of control
Clc1cc2nc3[nH]c4ccccc4c3nc2cc1Cl
93 % of control
CN(C)c1ccc(/C=N/NC(=O)c2ccccc2NC(=O)c2ccccc2Cl)cc1
86 % of control
O=C([CH-]C(=O)C(F)(F)F)C(F)(F)F.O=C([CH-]C(=O)C(F)(F)F)C(F)(F)F.O=C([CH-]C(=O)C(F)(F)F)C(F)(F)F.[Ru+3]
87 % of control

Here is the next item to consider.
Ask | Under P388 leukemia ip, CD2F1 mice, survival T/C: T/C value of CC(=O)C1CCC2=C(C1)C(=O)c1cc3c(-c4ccccc4)oc(-c4ccccc4)c3cc1C2=O (stereo not given) ?
Reply | 94 % of control
